Cited source for all entries: patent US20220380319A1

systemTested: acid ceramidase (Homo sapiens, UniProt Q13510)
Construct: Cell lysates overexpressing acid ceramidase were used as the enzyme source; expressed in transfected cells
Sequence (Q13510 22-395): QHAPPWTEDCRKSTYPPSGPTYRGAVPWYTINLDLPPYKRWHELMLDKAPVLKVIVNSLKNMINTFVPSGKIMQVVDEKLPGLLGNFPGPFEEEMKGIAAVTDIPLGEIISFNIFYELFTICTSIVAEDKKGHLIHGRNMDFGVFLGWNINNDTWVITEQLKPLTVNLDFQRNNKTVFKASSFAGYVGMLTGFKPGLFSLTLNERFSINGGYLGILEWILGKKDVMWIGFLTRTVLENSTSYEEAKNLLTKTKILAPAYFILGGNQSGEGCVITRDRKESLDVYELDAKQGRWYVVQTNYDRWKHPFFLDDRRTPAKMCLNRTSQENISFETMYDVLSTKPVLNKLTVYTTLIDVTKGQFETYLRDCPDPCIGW
assayDetails: Acid ceramidase inhibition, biochemical fluorescent assay with cell lysates overexpressing acid ceramidase, substrate Rbm14-12
measurementConditions: substrate Rbm14-12 6.3 μM, pH 4.5
Recorded IC50 values for a group of compounds are listed next.

Inquiry: Give the measured IC50 of CCOc1nc2cc(N3CCOCC3)ccc2n1C(=O)NCCCc1ccccc1 [Example 189a] .
Reply text: < 200 nM

Inquiry: Same again, this time with `CN1CC(N2CCN(c3cccc4c3ncn4C(=O)NCC#Cc3ccccc3)CC2)C1`
Reply text: < 200 nM

Inquiry: Same again, this time with CC(C)CCNC(=O)n1cnc2c(N3CCO[C@@H](C(C)C)C3)cccc21 [Example 172a]
Reply text: 200 to 1000 nM
